Data credit: PubChem BioAssay (NCI)

Tested on: SNB-75 CNS
assayProcedure: NCI-60 one-dose screen, 48 h
measurementSetup: 10 µM unless noted
Compounds without any hit were thinned out: in the full panel of roughly 83,000, 20% have a hit. Activity calls are given as the source filed them. Rule for the calls: active = growth percent below 10; inactive = the rest.
Permitted responses: 1 = active, -1 = inactive

Consider the worked cases shown below.
- COc1ccc(C(=O)/C=C/c2ccc(Cl)cc2)cc1S(N)(=O)=O: -1
- CC1=C(C(=O)c2ccccc2)C(c2ccc3c(c2)OCO3)NC(=S)N1 (stereo not drawn): 1
- C#CCOc1cccc(Nc2c(Cl)c(CCl)nc3ccc(Oc4ccccc4)cc23)c1: -1
- CCOC(=O)c1c(Nc2nc3ccccc3s2)sc2c1CCC(=O)C2: -1
- C=CC(=O)NCc1cccc(Nc2ncc(Br)c(NCCCNC(=O)C3CCC3)n2)c1: 1
- O=C(Nc1ncc(Cc2ccccc2)s1)c1ccc2c(c1)OCCO2: 1

[ask] Assay result, entry `COc1cccc(NC(=O)c2sc3nc(C)c(C(=O)c4ccccc4)cc3c2N)c1` — outcome?
[reply] -1

[ask] Assay result, entry `CC/C(=C(/c1ccc(Cl)cc1)c1ccc(OCCN(CC)CC)cc1)c1ccc(OC)cc1` — outcome?
[reply] -1

* * *

Test system: SR leukemia
assayProcedure: NCI-60 one-dose screen, 48 h (100 = growth as untreated, 0 = no growth, -100 = all killed)
measurementSetup: 10 µM unless noted
This is part of a sample that, as a whole, favours compounds with a hit. Of some 83,000 tested, about 20% had one in any assay.
Below, each entry is listed with its recorded growth.
Expressed in %, but write only the number.

Some compounds with recorded growth:
• COc1ccc(Cn2cc3c(c2)-c2oncc2CC3)cc1 = 40.7
• CC/C(=C(/c1ccc(Cl)cc1)c1ccc(OCCCN(C)C)cc1)c1ccc(OC)cc1 = -40.6

[ask] What is its growth for SR leukemia? Entry: CCCCCC(C)(O)C(C(=O)O)c1ccccc1 (centres undefined)
[reply] 102

[ask] What is its growth for SR leukemia? Entry: `CC/C(=C(/c1ccc(Cl)cc1)c1ccc(OCCN2CCCCCC2)cc1)c1ccccc1`
[reply] 6.94

* * *

Below, each entry is listed with its recorded growth.
Tested on: SNB-75 CNS
assayProcedure: NCI-60 one-dose screen, 48 h (100 = growth as untreated, 0 = no growth, -100 = all killed)
measurementSetup: 10 µM unless noted
Protocol: Growth inhibition of the SNB-75 human tumor cell line is measured as a screen for anti-cancer activity. Cells are grown in 96 well plates and exposed to the test compound for 48 hours. Compounds are tested at a single concentration, which is 10^-5 M for most compounds. The reported endpoint is percent growth (GI% or GIPRCNT), where numbers from 0 - 100% represent growth inhibition, and numbers from -100% - 0 represent cell death. For example, a value of 40 represents 60% growth inhibition. […]
This is part of a sample that, as a whole, favours compounds with a hit. Of some 83,000 tested, about 20% had one in any assay. Activity calls are given as the source filed them. Rule for the calls: active = growth percent below 10; inactive = the rest.

[ask] Please look up its growth: COc1cc2c(c(OC)c1OC)CCC(c1cccc(NC(=O)c3cccc(Cl)c3)c1)O2 (configuration not stated)
[reply] 85.6% (inactive)

[ask] Please look up its growth: `O=c1cc(-c2nccc3c2[nH]c2ccccc23)c2cc(Cl)ccc2o1`
[reply] 39.8% (inactive)

[ask] Please look up its growth: `COc1ccc(Cn2cc3c(c2)-c2oncc2CC3)cc1`
[reply] 50.6% (inactive)

[ask] Please look up its growth: CN(C)CC1C(=O)O[C@H]2[C@H]1CC/C(COC(=O)NCc1ccc(Cn3c(=O)sn(CCCI)c3=O)cc1)=C\CC[C@@]1(C)O[C@@H]21 (some centres not stated)
[reply] 71.8% (inactive)

[ask] Please look up its growth: `NCCNc1ccc([N+](=O)[O-])cc1`
[reply] 96.2% (inactive)
